Test Summary: Solubility of the compound in Milli-Q water at 25 degC
Assay type: physicochemical
Observed Property: solubility (µM)
One number for each entry, in µM.

Below, each entry is followed by its recorded solubility result.
### Prompt Read the entry COCCNC(=O)Oc1cc2c(c3ccccc13)C(CCl)CN2C(=O)c1cc2cc(NC(=O)c3cc(NC(=O)c4cc(NC(=O)c5cc(NC(=O)c6cc(NC(=O)CCCNC(=O)c7cc(NC(=O)c8cc(NC(=O)c9nc(NC(=O)CCNC(=O)c%10nc(NC(=O)c%11cc(NC(C)=O)cn%11C)cn%10C)cn9C)cn8C)cn7C)cn6C)cn5C)cn4C)cn3C)ccc2[nH]1 (stereo not drawn) and write its reported solubility.
### Response 180

### Prompt // fetch solubility given entry CC(=O)Nc1cc(C(=O)Nc2cn(C)c(C(=O)NCCC(=O)Nc3cn(C)c(C(=O)Nc4cc(C(=O)Nc5cc(C(=O)NCCCC(=O)Nc6cc(C(=O)Nc7cc(C(=O)Nc8cc(C(=O)Nc9cc(C(=O)Nc%10ccc%11[nH]c(C(=O)N%12CC(CCl)c%13c%12cc(OC(=O)NCCCN(C)C)c%12ccccc%13%12)cc%11c%10)n(C)c9)n(C)c8)n(C)c7)n(C)c6)n(C)c5)n(C)c4)n3)n2)n(C)c1 (stereo not drawn)
### Response 230

// next item, solubility requested
### Prompt Give the value of solubility reported for the following: CC(=O)Nc1cc(C(=O)Nc2cn(C)c(C(=O)NCCC(=O)Nc3cn(C)c(C(=O)Nc4cc(C(=O)Nc5cc(C(=O)NCCCC(=O)Nc6cc(C(=O)Nc7cc(C(=O)Nc8cc(C(=O)Nc9cc(C(=O)Nc%10ccc%11[nH]c(C(=O)N%12CC(CCl)c%13c%12cc(OC(=O)[C@@H](N)CCCCN)c%12ccccc%13%12)cc%11c%10)n(C)c9)n(C)c8)n(C)c7)n(C)c6)n(C)c5)n(C)c4)n3)n2)n(C)c1 (stereo partly drawn)
### Response 1200

----------
Test Summary: Chemical stability of the compound in 5 mM sodium phosphate buffer containing 10% DMF at pH 7 assessed as half life by HPLC analysis
Type: physicochemical
Task for the reader: assign each of the following compounds its reported half-life.
Give bare numbers, in h.

### Prompt Specify reported half-life for the compound shown: COCCNC(=O)Oc1cc2c(c3ccccc13)C(CCl)CN2C(=O)c1cc2cc(NC(=O)c3cc(NC(=O)c4cc(NC(=O)c5cc(NC(=O)c6cc(NC(=O)CCCNC(=O)c7cc(NC(=O)c8cc(NC(=O)c9nc(NC(=O)CCNC(=O)c%10nc(NC(=O)c%11cc(NC(C)=O)cn%11C)cn%10C)cn9C)cn8C)cn7C)cn6C)cn5C)cn4C)cn3C)ccc2[nH]1 (stereo not drawn)
### Response 3.5

Next:
### Prompt // fetch half-life given entry CC(=O)Nc1cc(C(=O)Nc2cn(C)c(C(=O)NCCC(=O)Nc3cn(C)c(C(=O)Nc4cc(C(=O)Nc5cc(C(=O)NCCCC(=O)Nc6cc(C(=O)Nc7cc(C(=O)Nc8cc(C(=O)Nc9cc(C(=O)Nc%10ccc%11[nH]c(C(=O)N%12CC(CCl)c%13c%12cc(OC(=O)NCCCN(C)C)c%12ccccc%13%12)cc%11c%10)n(C)c9)n(C)c8)n(C)c7)n(C)c6)n(C)c5)n(C)c4)n3)n2)n(C)c1 (stereo not drawn)
### Response 1.1
